A collection of molecules and their measured Kd
Target: T1, biotinylated mesothelin ECD (Homo sapiens, UniProt Q13421)
T1 construct: made in house; host or cells: HEK293F (transient)
T1 sequence (Q13421 with tags, fused parts or gaps): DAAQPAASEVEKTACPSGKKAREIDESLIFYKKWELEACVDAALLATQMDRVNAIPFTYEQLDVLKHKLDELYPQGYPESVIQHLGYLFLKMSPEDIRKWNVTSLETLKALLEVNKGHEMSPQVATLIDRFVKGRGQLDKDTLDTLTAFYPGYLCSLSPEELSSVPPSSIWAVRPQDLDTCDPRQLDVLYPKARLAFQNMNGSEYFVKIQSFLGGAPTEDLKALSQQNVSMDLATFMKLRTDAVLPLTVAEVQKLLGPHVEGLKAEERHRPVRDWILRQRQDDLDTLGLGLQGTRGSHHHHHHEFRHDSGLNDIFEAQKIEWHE
Assay: Surface plasmon resonance (Biacore T200) binding affinity of purified scFvs
Settings: 1:1 Binding or Steady State Affinity fit
Method: Binding affinity of purified scFvs was measured on a Biacore T200 system. Briefly, recombinant human biotinylated mesothelin ECD was immobilized on a streptavidin (SA) sensor chip surface at a density of 150 RU. Purified scFv was injected over the chip under constant flow rate at three-fold serial dilutions. Association and dissociation rates of the protein complex were monitored for 270 seconds and 400 seconds, respectively. […]
Unit nM implied. Number only.

Look over these answered cases.
Sample M17: human anti-mesothelin scFv SEQ ID NO: 55; full CAR SEQ ID NO: 79 (protein) scFv: EVQLVESGGGLVQPGRSLRLSCAASGFTFDDYAMHWVRQAPGKGLEWVSGISWNSGSTGYADSVKGRFTISRDNAKNSLYLQMNSLRAEDTALYYCAKDSSSWYGGGSAFDIWGQGTMVTVSSGGGGSGGGGSGGGGSSSELTQDPAVSVALGQTVRITCQGDSLRSYYASWYQQKPGQAPVLVIYGKNNRPSGIPDRFSGSSSGNTASLTITGAQAEDEADYYCNSRGSSGNHYVFGTGTKVTVL — what was its Kd?
27.8

Look up Kd for this molecule: M23: human anti-mesothelin scFv SEQ ID NO: 61; CDRs in Tables 4 and 5 (protein) scFv: QVQLQQSGAEVKKPGASVKVSCKASGYTFTNYYMHWVRQAPGQGLEWMGIINPSGGYTTYAQKFQGRLTMTRDTSTSTVYMELSSLRSEDTAVYYCARIRSCGGDCYYFDNWGQGTLVTVSSGGGGSGGGGSGGGGSGGGGSDIQLTQSPSTLSASVGDRVTITCRASENVNIWLAWYQQKPGKAPKLLIYKSSSLASGVPSRFSGSGSGAEFTLTISSLQPDDFATYYCQQYQSYPLTFGGGTKVDIK
114

Which Kd is reported for this molecule? M5: human anti-mesothelin scFv SEQ ID NO: 43; full CAR SEQ ID NO: 67 (protein) scFv: QVQLVQSGAEVEKPGASVKVSCKASGYTFTDYYMHWVRQAPGQGLEWMGWINPNSGGTNYAQKFQGRVTMTRDTSISTAYMELSRLRSDDTAVYYCASGWDFDYWGQGTLVTVSSGGGGSGGGGSGGGGSGGGGSDIVMTQSPSSLSASVGDRVTITCRASQSIRYYLSWYQQKPGKAPKLLIYTASILQNGVPSRFSGSGSGTDFTLTISSLQPEDFATYYCLQTYTTPDFGPGTKVEIK
26.9

I have this molecule here, M12: human anti-mesothelin scFv SEQ ID NO: 50; full CAR SEQ ID NO: 74 (protein) scFv: QVQLVQSGAEVKKPGASVKVSCKASGYTFTGYYMHWVRQAPGQGLEWMGRINPNSGGTNYAQKFQGRVTMTTDTSTSTAYMELRSLRSDDTAVYYCARTTTSYAFDIWGQGTMVTVSSGGGGSGGGGSGGGGSGGGGSDIQLTQSPSTLSASVGDRVTITCRASQSISTWLAWYQQKPGKAPNLLIYKASTLESGVPSRFSGSGSGTEFTLTISSLQPDDFATYYCQQYNTYSPYTFGQGTKLEIK , and I need its recorded Kd.
307

Attention now shifts to the item below.
Fill in: Kd of M11: human anti-mesothelin scFv SEQ ID NO: 49; full CAR SEQ ID NO: 73 (protein) scFv: QVQLQQSGAEVKKPGASVKVSCKASGYTFTGYYMHWVRQAPGQGLEWMGWINPNSGGTNYAQNFQGRVTMTRDTSISTAYMELRRLRSDDTAVYYCASGWDFDYWGQGTLVTVSSGGGGSGGGGSGGGGSGGGGSDIRMTQSPSSLSASVGDRVTITCRASQSIRYYLSWYQQKPGKAPKLLIYTASILQNGVPSRFSGSGSGTDFTLTISSLQPEDFATYYCLQTYTTPDFGPGTKVEIK is ___
64.7
